From: paper PMC8279417

Item-by-item account of pIC50
- tested target: ERβ (Homo sapiens, UniProt Q92731)
- Sequence (Q92731 whole entry): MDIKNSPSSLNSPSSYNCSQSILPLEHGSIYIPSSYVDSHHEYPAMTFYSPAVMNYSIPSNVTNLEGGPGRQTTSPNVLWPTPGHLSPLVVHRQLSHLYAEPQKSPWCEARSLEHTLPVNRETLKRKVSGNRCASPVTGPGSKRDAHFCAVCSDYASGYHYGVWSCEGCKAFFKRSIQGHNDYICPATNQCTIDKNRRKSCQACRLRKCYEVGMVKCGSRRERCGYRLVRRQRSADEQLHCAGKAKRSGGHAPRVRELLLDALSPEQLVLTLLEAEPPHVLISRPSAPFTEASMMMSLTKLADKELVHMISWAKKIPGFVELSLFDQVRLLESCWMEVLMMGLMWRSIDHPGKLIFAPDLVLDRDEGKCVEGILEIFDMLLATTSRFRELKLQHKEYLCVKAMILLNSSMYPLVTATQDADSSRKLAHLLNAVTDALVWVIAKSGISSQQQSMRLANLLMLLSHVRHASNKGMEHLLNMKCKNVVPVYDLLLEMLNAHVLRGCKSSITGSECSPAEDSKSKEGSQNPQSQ
- run description: Luciferase reporter gene assay (transactivation), U2OS cells transfected with pSG5-ERβ
- Format: cell-based
- settings: inhibition of E2-induced (0.3 nM) transactivation
pIC50: −log10 of the molar value.

compound: CCC(=C(c1ccc(O)cc1)c1ccc(/C=C/C(=O)NCCCCCNC(=O)CCc2nc3cc(O)ccc3[nH]2)cc1)c1ccccc1 (mixture of isomers)
pIC50: 7.33
//
compound: CCC(=C(c1ccc(O)cc1)c1ccc(/C=C/C(=O)NCCCNC(=O)CCc2nc3cc(O)ccc3[nH]2)cc1)c1ccccc1 (mixture of isomers)
pIC50: 7.73
//
compound: CCC(=C(c1ccc(O)cc1)c1ccc(/C=C/C(=O)NCCCCCCNC(=O)CCc2nc3cc(OC)ccc3[nH]2)cc1)c1ccccc1 (mixture of isomers)
pIC50: 8.05
//
compound: CCC(=C(c1ccc(O)cc1)c1ccc(/C=C/C(=O)NCCCNC(=O)c2ccc(N3CCN(C(=O)CCCn4c(=S)[nH]c5ccccc5c4=O)CC3)cc2)cc1)c1ccccc1 (mixture of isomers)
pIC50: 7.32
//
compound: CCC(=C(c1ccc(O)cc1)c1ccc(/C=C/C(=O)NCCCCNC(=O)CCc2nc3cc(O)ccc3[nH]2)cc1)c1ccccc1 (mixture of isomers)
pIC50: 7.80
